Origin of values: ChEMBL document CHEMBL4765336

Known microsomal CLint at 1 µM of a selection of compounds
# Experimental Details: Metabolic stability in monkey liver microsomes assessed as intrinsic clearance at 1 uM incubated up to 60 mins in presence of NADPH by LC-MS/MS analysis
# Format: ADME, Macaca mulatta, Microsome
# Protocol Conditions: rhesus monkey, read-out: CLH
Express your answer in µL/min/mg, writing the number without its unit.

// solved cases for microsomal CLint at 1 µM follow
compound="Cc1ncc2n1-c1ccc(Cl)cc1C(c1ccccc1F)=NC2 [MIDAZOLAM]" unit_name=µL/min/mg assay_value=551
compound=COc1cc(F)ccc1-c1nc(Nc2ccc3c(N4CCOCC4)c(C(C)=O)c(=O)oc3c2)ncc1F unit_name=µL/min/mg assay_value=57.3

# ---- query compound ----
Need microsomal CLint at 1 µM of `COc1cc(F)ccc1-c1ccnc(Nc2ccc3c(N4CCOCC4)c(C(C)=O)c(=O)oc3c2)n1` , thanks.
62.5

---

# Experimental Details: Cmax in ICR mouse at 30 mg/kg, po measured up to 24 hrs by LC-MS/MS analysis
# Assay type: ADME, organism-based
# Design: route oral, dose 30 mg/kg, time <=24
# Protocol Conditions: in vivo
Endpoint Label: Cmax (ng/mL)
Express your answer in ng/mL, writing the number without its unit.

Need Cmax of `COc1cc(F)ccc1-c1nc(Nc2ccc3c(N4CCOCC4)c(C(C)=O)c(=O)oc3c2)ncc1F` , thanks.
665

---

# Assayed Target: CDK9/cyclin T1 (Homo sapiens) (UniProt O60563+P50750)
# Experimental Details: Inhibition of CDK9/Cyclin T1 (unknown origin) assessed as enzyme activity at 1 uM preincubated for 20 mins followed by ATP addition and measured after 120 mins in presence of [33P-gamma] ATP by hotspot kinase assay relative to control
# Type: protein-complex assay
# Parameters: scale not given: the % may be the effect or the level left
# Protocol Conditions: time 140.0 min
Endpoint Label: Activity

// solved cases for Activity follow
mol_smiles=CC(=O)c1c(N2CCOCC2)c2ccc(Nc3cc(-c4ccccc4C(F)(F)F)ncn3)cc2oc1=O assayed_target="CDK9/cyclin T1 (Homo sapiens) (UniProt O60563+P50750)" assay_value=106%
mol_smiles=CC(=O)c1c(N2CCOCC2)c2ccc(Nc3cc(-c4ccccc4C)ncn3)cc2oc1=O assayed_target="CDK9/cyclin T1 (Homo sapiens) (UniProt O60563+P50750)" assay_value=92.2%
mol_smiles=CCc1ccccc1-c1cc(Nc2ccc3c(N4CCOCC4)c(C(C)=O)c(=O)oc3c2)ncn1 assayed_target="CDK9/cyclin T1 (Homo sapiens) (UniProt O60563+P50750)" assay_value=90%

Need Activity of `COc1cccc(-c2ccnc(Nc3ccc4c(N5CCOCC5)c(C(C)=O)c(=O)oc4c3)n2)c1OC` , thanks.
51.7%

Now this one: `CC(=O)c1c(N2CCOCC2)c2ccc(Nc3cc(-c4ccccc4)ncn3)cc2oc1=O`
104%

---

# Experimental Details: Metabolic stability in monkey liver microsomes assessed as half life at 1 uM incubated up to 60 mins in presence of NADPH by LC-MS/MS analysis
# Type: ADME, Macaca mulatta, Microsome
# Protocol Conditions: rhesus monkey
Endpoint Label: half-life at 1 µM (min)
Express your answer in min, writing the number without its unit.

molecule=COc1cc(F)ccc1-c1ccnc(Nc2ccc3c(N4CCOCC4)c(C(C)=O)c(=O)oc3c2)n1 assay_value=22.2
molecule=COc1cc(F)ccc1-c1nc(Nc2ccc3c(N4CCOCC4)c(C(C)=O)c(=O)oc3c2)ncc1F assay_value=24.2

# ---- query molecule ----
Need half-life at 1 µM of Cc1ncc2n1-c1ccc(Cl)cc1C(c1ccccc1F)=NC2 [MIDAZOLAM] , thanks.
6.29

---

# Assayed Target: Cyclin-dependent kinase 1/cyclin B1 (Homo sapiens)
# Sequence (P06493 whole entry): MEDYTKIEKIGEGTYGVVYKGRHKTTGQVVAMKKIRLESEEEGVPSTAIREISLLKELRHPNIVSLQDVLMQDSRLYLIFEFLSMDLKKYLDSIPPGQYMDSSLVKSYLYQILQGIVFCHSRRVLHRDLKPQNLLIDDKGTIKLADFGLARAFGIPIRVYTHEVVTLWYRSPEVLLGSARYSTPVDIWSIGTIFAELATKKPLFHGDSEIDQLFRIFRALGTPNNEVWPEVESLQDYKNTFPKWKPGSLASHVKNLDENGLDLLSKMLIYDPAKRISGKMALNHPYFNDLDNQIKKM
# Sequence (P14635 whole entry, further chain): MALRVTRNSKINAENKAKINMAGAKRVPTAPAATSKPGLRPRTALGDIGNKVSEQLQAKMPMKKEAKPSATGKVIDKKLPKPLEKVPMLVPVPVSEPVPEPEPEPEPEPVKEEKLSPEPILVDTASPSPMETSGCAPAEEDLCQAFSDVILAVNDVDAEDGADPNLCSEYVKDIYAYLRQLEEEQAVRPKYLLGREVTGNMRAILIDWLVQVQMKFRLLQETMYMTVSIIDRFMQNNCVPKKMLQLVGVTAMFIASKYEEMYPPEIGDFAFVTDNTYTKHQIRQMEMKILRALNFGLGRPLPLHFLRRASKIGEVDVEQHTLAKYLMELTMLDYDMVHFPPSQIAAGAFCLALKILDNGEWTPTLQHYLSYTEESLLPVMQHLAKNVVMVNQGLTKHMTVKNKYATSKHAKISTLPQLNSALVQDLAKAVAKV
# Experimental Details: Inhibition of CDK1/Cyclin B (unknown origin) preincubated for 20 mins followed by ATP addition and measured after 120 mins in presence of [33P-gamma] ATP by hotspot kinase assay
Endpoint Label: IC50 (µM)
Express your answer in µM, writing the number without its unit.

Need IC50 of `COc1cc(F)ccc1-c1nc(Nc2ccc3c(N4CCOCC4)c(C(C)=O)c(=O)oc3c2)ncc1F` , thanks.
1.95

---

# Tested on: MV4-11
# Experimental Details: Antiproliferative activity against human MV4-11 cells assessed as inhibition of cell growth incubated for 72 hrs by Celltiter-Glo luminescent assay
# Format: functional, cell-based
# Protocol Conditions: MV4-11, 72 h
Known pIC50 of a selection of molecules
// pIC50 here means minus log10 of the molar concentration (mol/L)

// solved cases for pIC50 follow
mol_smiles=COc1cc(F)ccc1-c1nc(Nc2ccc3c(N4CCOCC4)c(C(C)=O)c(=O)oc3c2)ncc1Cl assay_value=6.00
mol_smiles=CCc1ccccc1-c1ccnc(Nc2ccc3c(N4CCOCC4)c(C(C)=O)c(=O)oc3c2)n1 assay_value=5.01
mol_smiles=COc1cc(F)ccc1-c1nc(Nc2ccc3c(N4CCN(C)CC4)c(C(C)=O)c(=O)oc3c2)ncc1Cl assay_value=5.86
mol_smiles=CCc1c(N2CCOCC2)c2ccc(Nc3nccc(-c4ccccc4OC)n3)cc2oc1=O assay_value=5.33
mol_smiles=COc1ccc(-c2ccnc(Nc3ccc4c(N5CCOCC5)c(C(C)=O)c(=O)oc4c3)n2)cc1 assay_value=5.19
mol_smiles=COc1ccccc1-c1ccnc(Nc2ccc3c(N4CCOCC4)c(C(C)=O)c(=O)oc3c2)n1 assay_value=6.00

Need pIC50 of `CC(=O)c1c(C)c2ccc(Nc3nccc(-c4cccnc4)n3)cc2oc1=O` , thanks.
4.89

---

# Experimental Details: Volume of distribution at steady state in ICR mouse at 2 mg/kg, iv measured up to 24 hrs by LC-MS/MS analysis
# Type: ADME, organism-based
# Protocol Conditions: in vivo, read-out: Vdss
Endpoint Label: Vd (L/kg)
Express your answer in L/kg, writing the number without its unit.

Need Vd of `COc1cc(F)ccc1-c1nc(Nc2ccc3c(N4CCOCC4)c(C(C)=O)c(=O)oc3c2)ncc1F` , thanks.
0.67

---

# Experimental Details: Oral bioavailability in ICR mouse at 30 mg/kg measured up to 24 hrs by LC-MS/MS analysis
# Type: ADME, organism-based
# Protocol Conditions: in vivo
Endpoint Label: bioavailability
Answer with the number, then the unit.

Need bioavailability of `COc1cc(F)ccc1-c1nc(Nc2ccc3c(N4CCOCC4)c(C(C)=O)c(=O)oc3c2)ncc1F` , thanks.
14.3%

---

# Experimental Details: Tmax in ICR mouse at 30 mg/kg, po measured up to 24 hrs by LC-MS/MS analysis
# Assay type: ADME, organism-based
# Protocol Conditions: in vivo
Endpoint Label: Tmax (min)
Express your answer in min, writing the number without its unit.

Need Tmax of `COc1cc(F)ccc1-c1nc(Nc2ccc3c(N4CCOCC4)c(C(C)=O)c(=O)oc3c2)ncc1F` , thanks.
15

---

# Assayed Target: CDK8/Cyclin C (Homo sapiens)
# Sequence (P49336 whole entry): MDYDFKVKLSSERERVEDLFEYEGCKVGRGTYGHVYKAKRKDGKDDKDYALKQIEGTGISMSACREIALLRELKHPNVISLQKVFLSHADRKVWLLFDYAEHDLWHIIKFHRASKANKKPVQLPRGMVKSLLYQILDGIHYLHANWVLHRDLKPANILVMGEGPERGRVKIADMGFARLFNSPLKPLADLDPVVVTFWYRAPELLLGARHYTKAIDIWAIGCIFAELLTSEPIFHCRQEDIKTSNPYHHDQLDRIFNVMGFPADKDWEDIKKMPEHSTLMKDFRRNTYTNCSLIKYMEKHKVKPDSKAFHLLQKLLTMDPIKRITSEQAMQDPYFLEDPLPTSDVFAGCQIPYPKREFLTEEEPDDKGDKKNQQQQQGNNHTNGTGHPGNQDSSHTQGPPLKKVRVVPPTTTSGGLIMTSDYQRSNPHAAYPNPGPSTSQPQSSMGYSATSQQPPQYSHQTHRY
# Sequence (P24863 whole entry, further chain): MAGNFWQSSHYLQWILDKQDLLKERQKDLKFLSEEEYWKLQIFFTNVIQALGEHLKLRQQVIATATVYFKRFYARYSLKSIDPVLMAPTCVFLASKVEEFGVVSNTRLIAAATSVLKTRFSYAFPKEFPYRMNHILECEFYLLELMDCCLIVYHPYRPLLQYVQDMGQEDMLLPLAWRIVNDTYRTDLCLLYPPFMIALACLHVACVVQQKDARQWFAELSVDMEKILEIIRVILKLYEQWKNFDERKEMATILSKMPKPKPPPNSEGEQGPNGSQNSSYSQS
# Experimental Details: Inhibition of CDK8/Cyclin C (unknown origin) preincubated for 20 mins followed by ATP addition and measured after 120 mins in presence of [33P-gamma] ATP by hotspot kinase assay
# Format: protein-complex assay
Endpoint Label: pIC50
// pIC50 here means minus log10 of the molar concentration (mol/L)

Need pIC50 of `COc1cc(F)ccc1-c1nc(Nc2ccc3c(N4CCOCC4)c(C(C)=O)c(=O)oc3c2)ncc1F` , thanks.
5.19

---

# Experimental Details: Initial plasma concentration in ICR mouse at 2 mg/kg, iv measured up to 24 hrs by LC-MS/MS analysis
# Format: ADME, organism-based
Endpoint Label: C0 at 24 h (ng/mL)
Express your answer in ng/mL, writing the number without its unit.

Need C0 at 24 h of `COc1cc(F)ccc1-c1nc(Nc2ccc3c(N4CCOCC4)c(C(C)=O)c(=O)oc3c2)ncc1F` , thanks.
3060

---

# Assayed Target: Voltage-gated inwardly rectifying potassium channel KCNH2 (Homo sapiens, UniProt Q12809)
# Sequence (Q12809 whole entry): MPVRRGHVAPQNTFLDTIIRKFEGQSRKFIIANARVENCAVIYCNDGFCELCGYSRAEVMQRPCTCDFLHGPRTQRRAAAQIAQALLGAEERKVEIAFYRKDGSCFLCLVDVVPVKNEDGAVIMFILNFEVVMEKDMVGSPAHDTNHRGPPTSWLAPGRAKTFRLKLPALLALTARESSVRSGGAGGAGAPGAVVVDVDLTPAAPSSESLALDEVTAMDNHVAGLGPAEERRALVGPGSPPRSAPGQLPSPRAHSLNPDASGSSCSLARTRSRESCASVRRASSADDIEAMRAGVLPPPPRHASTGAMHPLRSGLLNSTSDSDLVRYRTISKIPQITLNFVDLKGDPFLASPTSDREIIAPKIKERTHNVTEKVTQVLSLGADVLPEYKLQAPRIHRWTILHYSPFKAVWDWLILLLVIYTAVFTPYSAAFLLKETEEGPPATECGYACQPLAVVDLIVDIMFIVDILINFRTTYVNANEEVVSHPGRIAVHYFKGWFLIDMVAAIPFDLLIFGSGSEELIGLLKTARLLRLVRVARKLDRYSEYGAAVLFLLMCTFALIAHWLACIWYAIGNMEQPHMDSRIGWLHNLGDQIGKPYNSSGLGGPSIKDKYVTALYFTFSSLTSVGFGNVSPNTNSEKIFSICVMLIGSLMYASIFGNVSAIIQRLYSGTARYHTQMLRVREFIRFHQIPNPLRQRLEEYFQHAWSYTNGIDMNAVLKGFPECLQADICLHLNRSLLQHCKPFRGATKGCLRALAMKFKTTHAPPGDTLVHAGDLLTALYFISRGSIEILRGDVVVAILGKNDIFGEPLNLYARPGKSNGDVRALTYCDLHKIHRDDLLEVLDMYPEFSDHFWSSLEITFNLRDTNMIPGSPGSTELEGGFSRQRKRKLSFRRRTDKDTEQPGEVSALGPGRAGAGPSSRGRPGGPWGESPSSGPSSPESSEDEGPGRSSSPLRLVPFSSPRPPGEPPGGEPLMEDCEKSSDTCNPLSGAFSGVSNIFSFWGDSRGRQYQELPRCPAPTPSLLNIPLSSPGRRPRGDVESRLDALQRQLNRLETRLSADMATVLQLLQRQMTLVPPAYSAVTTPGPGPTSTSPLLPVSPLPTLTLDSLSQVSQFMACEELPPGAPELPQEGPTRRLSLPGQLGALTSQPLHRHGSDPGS
Endpoint Label: pIC50
// pIC50 here means minus log10 of the molar concentration (mol/L)

Need pIC50 of `COc1cc(F)ccc1-c1nc(Nc2ccc3c(N4CCOCC4)c(C(C)=O)c(=O)oc3c2)ncc1F` , thanks.
5.00

---

# Assayed Target: Cyclin-dependent kinase 4/cyclin D1 (Homo sapiens, UniProt P11802)
# Sequence (P11802 whole entry): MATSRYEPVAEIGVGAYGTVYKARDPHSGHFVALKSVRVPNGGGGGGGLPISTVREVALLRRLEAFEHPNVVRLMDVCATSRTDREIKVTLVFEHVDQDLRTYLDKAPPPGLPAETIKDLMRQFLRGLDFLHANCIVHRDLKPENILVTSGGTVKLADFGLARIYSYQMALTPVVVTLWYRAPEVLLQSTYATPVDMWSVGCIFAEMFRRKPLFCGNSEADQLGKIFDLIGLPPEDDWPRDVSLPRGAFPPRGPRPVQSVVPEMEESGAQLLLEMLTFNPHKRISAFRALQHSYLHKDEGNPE
# Sequence (P24385 whole entry, further chain): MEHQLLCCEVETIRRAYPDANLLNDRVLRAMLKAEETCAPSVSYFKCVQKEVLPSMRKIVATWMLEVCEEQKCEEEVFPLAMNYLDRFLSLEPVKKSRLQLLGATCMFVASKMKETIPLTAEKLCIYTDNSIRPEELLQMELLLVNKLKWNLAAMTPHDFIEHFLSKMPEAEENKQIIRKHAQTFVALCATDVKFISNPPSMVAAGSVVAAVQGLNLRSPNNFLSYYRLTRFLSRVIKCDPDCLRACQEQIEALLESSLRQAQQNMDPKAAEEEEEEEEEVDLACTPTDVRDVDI
# Experimental Details: Inhibition of CDK4/Cyclin D1 (unknown origin) preincubated for 20 mins followed by ATP addition and measured after 120 mins in presence of [33P-gamma] ATP by hotspot kinase assay
Endpoint Label: IC50 (nM)
Express your answer in nM, writing the number without its unit.

Need IC50 of `COc1cc(F)ccc1-c1nc(Nc2ccc3c(N4CCOCC4)c(C(C)=O)c(=O)oc3c2)ncc1F` , thanks.
471

---

# Assayed Target: CDK3/Cyclin E (Homo sapiens, UniProt Q00526)
# Sequence (P24864 whole entry): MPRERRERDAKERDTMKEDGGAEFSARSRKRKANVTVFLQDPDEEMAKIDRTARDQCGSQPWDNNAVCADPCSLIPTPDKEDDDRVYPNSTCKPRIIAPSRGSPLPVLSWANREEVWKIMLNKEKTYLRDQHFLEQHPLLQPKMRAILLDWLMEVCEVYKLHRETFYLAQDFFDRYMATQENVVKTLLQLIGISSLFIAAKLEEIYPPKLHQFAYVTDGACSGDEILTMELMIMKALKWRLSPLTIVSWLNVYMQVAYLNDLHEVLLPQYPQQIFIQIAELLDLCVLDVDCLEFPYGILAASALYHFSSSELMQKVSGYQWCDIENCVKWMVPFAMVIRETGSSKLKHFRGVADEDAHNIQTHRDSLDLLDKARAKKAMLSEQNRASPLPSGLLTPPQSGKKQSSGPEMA
# Sequence (Q00526 whole entry): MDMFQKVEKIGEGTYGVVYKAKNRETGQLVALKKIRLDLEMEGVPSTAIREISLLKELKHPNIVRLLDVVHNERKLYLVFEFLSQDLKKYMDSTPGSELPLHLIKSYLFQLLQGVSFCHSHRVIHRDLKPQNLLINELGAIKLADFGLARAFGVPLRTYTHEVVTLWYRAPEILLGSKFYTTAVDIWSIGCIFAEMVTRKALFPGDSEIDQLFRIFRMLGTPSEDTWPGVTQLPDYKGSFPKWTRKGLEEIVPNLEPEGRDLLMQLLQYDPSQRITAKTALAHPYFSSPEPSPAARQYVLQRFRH
# Experimental Details: Inhibition of CDK3/Cyclin E (unknown origin) preincubated for 20 mins followed by ATP addition and measured after 120 mins in presence of [33P-gamma] ATP by hotspot kinase assay
Endpoint Label: pIC50
// pIC50 here means minus log10 of the molar concentration (mol/L)

Find the measured pIC50: item `COc1cc(F)ccc1-c1nc(Nc2ccc3c(N4CCOCC4)c(C(C)=O)c(=O)oc3c2)ncc1F` , target or system CDK3/Cyclin E (Homo sapiens, UniProt Q00526).
5.82
